Where a name gives a salt, the structure may show the parent alone.
READOUT TYPE: melting point

COMPOUND	melting point
Cc1cccc(C)c1-c1cccc2c1CC(CN)O2 (single isomer, unassigned; (+)) (as salt: hydrochloride) [Example 126]	> 250 °C
Cc1cc2c(c(-c3ccccc3)c1)OC(CN)C2 (racemic) (as salt: hydrochloride)	227 to 228 °C
NCC1Cc2cccc(-c3cccc(Cl)c3)c2O1 (single isomer, unassigned; (-)) (as salt: hydrobromid) [Example 67]	189 to 190 °C
NCC1Cc2c(F)ccc(-c3ccccc3)c2O1 (racemic) (as salt: hydrochloride)	254 to 257 °C
NCC1Cc2cccc(-c3ccc(F)cc3)c2O1 (single isomer, unassigned; (-)) (as salt: hydrobromid) [Example 75]	208 to 210 °C

melting point measured on CNCC1Cc2cc(Cl)cc(C3CCCCC3)c2O1 (racemic) (as salt: hydrochloride) = 125 to 128 °C

get_value(item= NCC1Cc2cccc(-c3ccc(C(F)(F)F)cc3)c2O1 (racemic) (as salt: hydrochloride) [Example 82] , readout=melting point) returns > 250 °C
